Values were extracted from PubChem BioAssay (NCI).

# ASSAY: NCI Yeast Anticancer Drug Screen. Data for the rad50 strain (AID 155);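 also: 0% = growth of vehicle-only cultures of the same strain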
# EXPERIMENTAL_CONTEXT: S. cerevisiae rad50 strain growth inhibition; at 50.0 µM; hits give high values
Compounds without any hit were thinned out: in the full panel of roughly 79,000, 15% have a hit.
Please go through the items and note down their growth inhibition.
Give bare numbers, in %.

Some entries whose results are on file:
| MOLECULE | QUANTITY | RECORDED_MEASUREMENT |
| --- | --- | --- |
| O=C1c2ccccc2C2(c3ccccc3)C=NNC12c1ccccc1 (stereo not given) | growth inhibition | 21.5 |
| CC(=O)O.Cl.NC1C([O-])OC(CO)C(O)C1O.O=C1OC(C(O)CO)C([O-])=C1[OH2+].[Cu+2] (stereo not given) | growth inhibition | 21.3 |
| COc1cccc(C2N=NC3=C(CCCC3)N2O)c1O (stereo not given) | growth inhibition | 14.4 |

Required: growth inhibition, one value per molecule below.
1. C=C1CC(Cn2cc(C)c(=O)[nH]c2=O)(c2ccc(-c3ccccc3)cc2)OC1=O (stereo not given)
2. CC(=O)Nc1cc2cc(N=CN(C)C)ccc2oc1=O
3. Nc1nc(N)c2nc(-c3ccc([N+](=O)[O-])cc3)c(Cl)nc2n1
4. CC(=O)OCC(OC(C)=O)C(OC(C)=O)C(OC(C)=O)C(OC(C)=O)c1cnn(-c2ccccc2)n1 (stereo not given)
5. O=C1C2=C(c3ccccc31)C(c1ccc([N+](=O)[O-])cc1)NC(=S)N2 (stereo not given)
6. O=C(Cl)C(Cl)(c1ccccc1)c1ccccc1
7. O=C(CC1(O)C(=O)Nc2ccccc21)c1ccc(O)cc1O (stereo not given)

Result string:
1: 8.9; 2: -24.9; 3: -8.2; 4: 15.9; 5: 5.6; 6: 2.15; 7: 13.2

###

# ASSAY: NCI Yeast Anticancer Drug Screen. Data for the mlh1 rad18 strain (AID 175)
# EXPERIMENTAL_CONTEXT: S. cerevisiae mlh1 rad18 strain growth inhibition; at 50.0 µM; hits give high values
Compounds without any hit were thinned out: in the full panel of roughly 79,000, 15% have a hit.
Provide the reported growth inhibition of each item.
Numbers only, in %.

Record excerpt, results attached:
| COMPOUND | UNITS_OF_MEASURE | growth inhibition |
| --- | --- | --- |
| O=S(=O)(OCC(F)(F)F)c1ccccc1 | % | -10.4 |
| CC(C)CC(O)C(C)C (stereo not drawn) | % | 1.35 |
| CNc1nc2c(C)ccc3[nH]c(NC)nc3c-2n1 | % | -15.9 |
| CCN(CC)CCN1C(=O)C2C3C=CC(C3)C2C1=O (stereo not drawn) | % | -14.9 |

Batch request: growth inhibition per item, same order as input.
1. O=COCCc1ccccc1
2. CCOC(=O)C1C/C(C)=C(/C)SCCCS1 (stereo not drawn)
3. CCOP(=O)(OCC)C(C(=O)OC)C(=O)C(=O)Nc1c(C)cc(Br)cc1C (stereo not drawn)

Result string:
1: 3.7; 2: -67.2; 3: -17.6

Could you tell me growth inhibition for each of these compounds? They are listed below.
1. O=C(Nc1ccc(S(=O)(=O)N2CCCCC2)cc1)OC(c1ccccc1)c1ccccc1
2. O=C1c2ccccc2C(=O)N1/N=C/c1ccc([N+](=O)[O-])cc1
3. c1ccc2c(c1)nn1c3ccc4nonc4c3[n-][n+]21
4. CC(NC(=O)N(C)C)NC(=O)N(C)C
5. O=c1[nH]c2cc(Cl)c(Cl)cc2c2ccc(Cl)cc12
6. Cc1cc(Cc2ccc3c(c2)OCO3)ccc1OCC(=O)O
7. COC(=O)CCC(=O)Nc1ccccc1C(F)(F)F

Result string:
1. 6.05
2. -22.5
3. -11.4
4. -4.95
5. -14.1
6. 23.8
7. 1

# batch: return growth inhibition for each of the 7 compounds below
1. CC(C)CN(CC(=O)NC(=O)c1ccccc1)CC(C)C
2. CN(C)C1C(CO)OC(n2cnc3c(N)ncnc32)C1O (stereo not drawn)
3. CC(=O)OCCOCN1C(=O)CC(=O)NC1=O
4. CC12CCC3C(CC=C4CC(O)CCC43C)C1CCC(=O)N2 (stereo not drawn)
5. CC12CC(=O)C3C(CCC4=CC(=O)CCC43C)C1CC=C2CC(=O)O (stereo not drawn)
6. COc1ccc(OC)c2c(Cl)cc(NCCCN3CCN(CCCNc4cc(Cl)c5c(OC)ccc(OC)c5n4)CC3)nc12
7. CC(=O)Nc1ccccc1Sc1ccccc1

Result string:
1. -3.8
2. -82.2
3. -30.2
4. -1
5. -11.2
6. 25.1
7. -20.9
